- target.or.test.system: BCL2 G101V (Homo sapiens, UniProt P10415, G101V)
- assay.explanation: TR-FRET competitive binding assay, BCL2 G101V
- condition.context: BCL2 G101V; Ki determined from IC50; read-out: TR_FRET EKI_Bcl2 G101V
endpoint.label: Ki (nM)

# compound, endpoint.label, u, result
data = [
    ("Cc1c(C(=O)N(c2ccccc2)c2cc(F)cc(C#N)c2)cc(-c2cc3c(cc2C(=O)N2Cc4ccccc4C[C@H]2C)CN(C(=O)Cc2ccc(OCCN4CCOCC4)cc2)CC3)n1C [Example 226]", "Ki", "nM", 8.4),
]

(P) Cc1ccc(N(C(=O)c2cc(-c3cc4c(cc3C(=O)N3Cc5ccccc5C[C@H]3C)CN(C(=O)Cc3ccc(OCCN5CCOCC5)cc3)CC4)n(C)c2C)c2ccccc2)cc1C#N [Example 204]
(Q) Cc1c(C(=O)N(c2ccc(O)cc2)c2cnn(CC(C)C)c2)cc(-c2cc3c(cc2C(=O)N2Cc4ccccc4C[C@H]2C)CN(C(=O)Cc2ccc(OCCN4CCOCC4)cc2)CC3)n1C [Example 144]
Inquiry: For this pair, P and Q , which shows a numerically higher Ki? Pick one; state its label.
Reply text: P
(P: 1.9 nM, Q: 1.1 nM)

(P) CCn1cc(N(C(=O)c2cc(-c3cc4c(cc3C(=O)N3Cc5ccccc5C[C@H]3C)CN(C(=O)Cc3ccc(OCCN5CCOCC5)cc3)CC4)n(C)c2C)c2ccccc2)c(C)n1 [Example 210]
(Q) Cc1c(N(C(=O)c2cc(-c3cc4c(cc3C(=O)N3Cc5ccccc5C[C@H]3CN3CCCCC3)CN(C(=O)Cc3ccc(OCC(C)N5CCOCC5)cc3F)CC4)n(C)c2C)c2ccc(O)cc2)cc(C#N)n1C (single isomer, unassigned) [Example 135]
Inquiry: For this pair, P and Q , which shows a numerically higher Ki? Pick one; state its label.
Reply text: P
